- test_summary: chemical genetic growth profiling, strain panel (AID 1159580);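 note: tested at 20 µM; growth read once vehicle control cultures reached saturation at 30 °C; 1 = growth at the plate median or of vehicle wells; lower values mean less growth of the strain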
- particulars: S. cerevisiae deletion strains, growth OD, locus YDR101C, strain arx1, active compounds read low
About 2,000 (36%) of roughly 5,500 compounds were called active. Another 18% or so got no clear call; they are omitted. The list shows a part of the results.
quantity_name: normalized growth
# output: bare number, no unit

Observe how each entry below is paired with its result.
* CC(=O)Oc1cc(OC(C)=O)c2c(=O)c(-c3ccccc3)coc2c1 | 0.982
* COc1cc([C@@H]2c3cc4c(cc3[C@H](O)[C@H]3COC(=O)[C@@H]23)OCO4)cc(OC)c1OC | 0.98
* COc1cc([C@@H]2c3cc4c(cc3[C@H](OC(C)=O)[C@H]3COC(=O)[C@H]23)OCO4)cc(OC)c1OC | 0.996
* C=C1C2CC[C@@]3(C)[C@H](c4ccoc4)OC(=O)C[C@]13O[C@H]1CC(=O)C(C)(C)[C@H](C(O)C(=O)OC)[C@@]21C (stereo not given in full) | 0.994

Let us move to another entry and its normalized growth.
Ask: What normalized growth value was documented for this compound, Cc1coc2ccccc2c1=O ?
Reply: 1.01
